# TARGET_ENTITY: Hexose transporter 1 (Plasmodium falciparum) (UniProt O97467)
# ASSAY_PROTOCOL: ST_JUDE_LEISH: Cytotoxicity at 2uM final concentration against transgenic Leishmania Mexicana promastigotes LmPfHT that are glucose transport deficient and complemented with the Plasmodium falciparum hexose transporter. Activity is measured by DNA content using SYBR green in vitro
# Format: functional
# inhibition per entry
Answer in %, number only, no unit symbol.

Example cases with answers are listed next.
> print(dat)
                                   molecule  endpoint.unit  assay.value
1  Cc1cccc(C)c1/N=C1\NC(=S)N(c2cccc(Cl)c2)C12CCC(C(C)(C)C)CC2 (centres undefined)              %         -1.2
2  COc1ccc(-c2cccc(NC(=O)c3cccc(Cl)c3)c2)cc1CN1CCNCC1              %          2.6
3  CN1CCN(CC2(Nc3nccc(NCCc4cn(C)c5ccccc45)n3)CCCCC2)CC1              %         1.78
4  CC(=O)Nc1ccc(C(=O)Nc2cccc(-c3ccc(-c4nc5ccccc5[nH]4)s3)c2)cn1              %         1.07
5  COc1ccc(CCCc2nc(N)nc(N)c2-c2ccc(Cl)cc2)cc1              %         6.84
6  O=C(Nc1ccc(-c2cccc(-c3nc4cc(F)ccc4[nH]3)c2)cc1)Nc1ccsc1              %         6.71

// inhibition lookup, molecule = `CCOc1c(OC)ccc2c1CCN(CCN1CCC(CNC(=O)c3ccc(-c4ccc(C(F)(F)F)cc4)cc3)CC1)C2` , result: -0.64

Reported inhibition for `O=C(Nc1cccc(CN2CCCN(Cc3ccc4c(c3)OCO4)CC2)c1)c1ccc(Cl)c(Cl)c1` was 5.95

inhibition in this record for `CC(C)Cc1ccc(N2CCN(CCCCNC(=O)c3ccc(NC(=O)c4ccc(Cl)c(Cl)c4)cc3)CC2)cc1` : 1.46

The molecule `CCN(CC)CCCN(C(=O)c1cc2c(C)nn(-c3ccccc3)c2s1)c1nc(-c2ccc(OC)cc2)cs1` showed inhibition equal to 9.13

What the record says about Cc1c(S(=O)(=O)Nc2ccc3nccc(N4CC(C)NC(C)C4)c3c2)sc2ccc(Cl)cc12 (centres undefined) : inhibition is 6.03

Reported inhibition of `CCCCOc1cc2c(cc1OCC)C(C=Cc1ccc(Cl)cc1Cl)=NCC2` : 27.9

Item: `CCOc1ccc(CCC(=O)O)cc1OCC` | inhibition: 3.36

Entry `CC(=NNC(S)=NCCc1ccccn1)c1ccccn1` — recorded inhibition = 4.39

The reported value for `Cc1ncccc1-c1cccc2c(NC(=O)Nc3ccc4nccc(N5CCN(C)CC5)c4c3)cccc12` in terms of inhibition is 3.58

Please fill in: inhibition reported for `COc1cc(COc2c(C)nc(N)nc2N)cc(OC)c1OC` = 4.54

For CCc1ccc2c(c1O)CCN(C)C2Cc1ccccc1Cl (centres undefined) the molecule record lists inhibition as 5.29
